- tested target: T1, human GLP-1 receptor (human, UniProt P43220 24-463)
- T1 construct: whole, on cells; Used as purified plasma membranes of the stably transfected BHK cell line, not as intact cells; also called hGLP-1
- measurement notes: SPA, displacement of 125I-GLP-1(7-36)NH2 from hGLP-1R BHK membranes, low HSA (0.001%)
Numbered stars: 1 amine (or outer) side, 2 acyl side, 3 side chain; on linkers, the order of the positions; unused ones are H or OH. Side chains are listed from the residue outwards. Ends that are not written are not given here. * marks the point of attachment. Decanoyl(10-(4-HOOC-PhO)) = O=C(O)c1ccc(OCCCCCCCCCC(=O)*)cc1; γGlu = O=C(O)[C@H](CCC(=O)[*:2])N[*:1]; C14 diacid = O=C(O)CCCCCCCCCCCCC(=O)*; AEEA = NCCOCCOCC(=O)O
Please assign False whenever IC50 is at or above 1 nM, and True whenever it is below.

Ask: Bench note: check whether HAEGTFTSDVSSYLEEQK([γGlu-AEEA-AEEA-C14 diacid])ARK([γGlu-AEEA-AEEA-C14 diacid])FIAHLVG (also called 22) shows IC50 below 1 nM
Result: False

Further cases:
Ask: Bench note: check whether HAEGTFTSDVSSYLEK([γGlu-AEEA-AEEA-C14 diacid])QAARK([γGlu-AEEA-AEEA-C14 diacid])FIAHLVG (also called 14) shows IC50 below 1 nM
Result: False

Ask: Bench note: check whether HAEGTFTSDVSSYLEEQK([AEEA-AEEA-γGlu-Decanoyl(10-(4-HOOC-PhO))])ARK([AEEA-AEEA-γGlu-Decanoyl(10-(4-HOOC-PhO))])FIAHLVG (also called 25) shows IC50 below 1 nM
Result: False
